- study.system: T1, CD134 expressed on the cell surface of HT1080_OX40 cells (human, UniProt P43489 29-277); note: test concentration or dose not given here
- T1 sequence (looked up): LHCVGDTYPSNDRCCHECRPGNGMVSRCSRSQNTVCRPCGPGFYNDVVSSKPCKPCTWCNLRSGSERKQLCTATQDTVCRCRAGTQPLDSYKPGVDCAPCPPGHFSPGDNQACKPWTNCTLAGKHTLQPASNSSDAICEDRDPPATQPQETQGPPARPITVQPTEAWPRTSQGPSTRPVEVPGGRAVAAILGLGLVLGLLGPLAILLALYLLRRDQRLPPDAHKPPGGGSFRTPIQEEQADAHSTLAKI
- test.description: cell-based or functional assay
This listing pairs binders with measured Functional assay IL-8.
Answer with a number only, understood to be in abs. corr..

>  <binder>
P018.S.11.A.B05 (antibody, V domains shown, V regions on human Ig constant parts; also called AB134_26) VH: QSVEESGGRLVTPGTPLTLTCTVSGFSLSTYNVAWVRQAPGKGLQYIGIMAFDGNTYYASWATGRFTISRTSTTVNLKITSPTTEDTATYFCCKGDPSSDTGTTLWGQGTLVTVSS VL: AAVLTQTPSSASEPVGGTVTIKCQSSPSVYSNNWLAWFQQKPGQRPKLLIYAAAKLASGVPSRFRGSGSGTQFTLTISDVQSDDAATYYCAGGFNSDSDTTFGGGTEVVVK

>  <assay.readout>
Functional assay IL-8

>  <observed.measurement>
1.36

$$$$

In: I have this binder here, P018.S.11.A.F02 (antibody, V domains shown, V regions on human Ig constant parts; also called AB134_38) VH: QSVEESGGRLVTPGTPLTLTCTASGFSLSNYNMGWVRQAPGEGLEWIGHISTDGSAYYASWAKGRFTISKTSTTVDLKITSPTTEDTGTYFCARLYYRHGYALNLWGQGTLVTVSS VL: DIVMTQTPASVSEPVGGTVTIKCQASQSVGSYLAWYQQKSGQPPKLLIYSASTLASGVPSRFKGSGSGTEFTLTISDLVSADAATYYCHCTYGSNITANWGTFGGGTGVVVK , and I need its recorded Functional assay IL-8.
Out: -0.011

In: Which Functional assay IL-8 is listed for P018.S.12.A.B01 (antibody, V domains shown, V regions on human Ig constant parts; also called AB134_56) VH: QEQLVESGGGLVQPEGSLTLTCKASGFDFSYNSMCWVRQAPGKGLEWITCIYNGDGSTWYASWAKGRFTISKTSSTTVTLQMTSLTAADTATYFCTRDFGLWGPGTLVTVSS VL: ALVMTQTPSSTSEPVGGTVTINCQASESVANHKQLSWYQQKPGQPPKVLIYYASTLASGVPSRFKGSGSGTQFTLTISDVVSDDAATYYCSGYKSISTDGNAFGGGTEVVVK ?
Out: 0.396

In: Can you look up the measured Functional assay IL-8 of P018.S.08.A.B03 (antibody, V domains shown, V regions on human Ig constant parts; also called AB134_19) VH: QSVEESGGRLVTPGTPLTLTCTVSGFSLSRYAITWVRQAPGKGLEWIGIISSSGTTYYASWAKGRFTISKTSTTVDLKITSPTTEDTAIYFCARAIAGDAGYVYAIDWLDLWGQGTLVTVSS VL: DPVLTQTPSSASEPVGGTVTIKCQASEYISNYLSWYQQKPGQPPKLLIFGASTLESGVPSRFSGSGSGTEFTLTISGVQSADAATYYCQGGYFSSSTTYVAFGGGTEVVVR for me?
Out: 0.709

In: Given P018.S.11.A.H06 (antibody, V domains shown, V regions on human Ig constant parts; also called AB134_49) VH: QSLEESGGRLVTPGTPLTLTCTVSGFSLSTYAMIWVRQAPGEGPEWIGLIAGGGNTWYASWAKGRFTISKTSTTVDLKITSPTTEDTATYFCARADYLGYGNNFWGQGTLVTVSS VL: AAVLTQTPSPVSAAVGGTVTINCQASQSVYNNNYLAWYQQKPGQPPKLLIYWASNLASGVPSRFSGSGSGTQFSLTISGVQSDDAATYYCLGVYDDDADNGFGGGTEVVVK , state its recorded Functional assay IL-8.
Out: 0.567
